assay: chemical genetic growth profiling, strain panel (AID 1159580);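 also: tested at 20 µM; growth read once vehicle control cultures reached saturation at 30 °C; 1 = growth at the plate median or of vehicle wells; lower values mean less growth of the strain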; settings: S. cerevisiae deletion strains, growth OD, locus YMR205C, strain PFK2, active compounds read low
Hit rate of the full screen: of about 5,500 compounds, about 2,000 (36%) were called active. Another 18% or so got no clear call; they are omitted. This is one part of the list.
test.readout: normalized growth

* FC(F)(F)c1ccccc1-n1ccnc1 | 1.09
* CC1(C)CC[C@@]2(C(=O)O)C(C1)C1=CCC3[C@@]4(C)CC[C@H](O)C(C)(C)C4CC[C@@]3(C)[C@]1(C)C[C@@H]2O (some centres undefined) | 0.984
* CC(=O)NCc1c(I)c(NC(C)=O)c(I)c(C(=O)O)c1I | 1.01
* C[C@@H]1CC[C@]2(C(=O)O)CC[C@]3(C)C(=CCC4[C@@]5(C)CC[C@H](O)C(C)(C)C5CC[C@]43C)C2[C@H]1C (some centres undefined) | 0.991
* Nc1ccc(S(=O)(=O)Nc2cnc3ccccc3n2)cc1 | 1.02
* Clc1ccccc1C(c1ccccc1)(c1ccccc1)n1ccnc1 | 0.0848
* C[C@H]1[C@H](C)CC[C@]2(CO)CC[C@]3(C)C(=CCC4[C@@]5(C)CC[C@H](O)C(C)(C)C5CC[C@]43C)[C@H]12 (some centres undefined) | 0.98
* COC(=O)C[C@H]1C(C)(C)C2(O)OC34CC2C(=O)[C@]1(C)C3CC[C@]1(C)C4=CC(=O)O[C@H]1c1ccoc1 (some centres undefined) | 1.01
* CC1OC(=O)C(C(C)C)NC(=O)C(C(C)C)OC(=O)C(C(C)C)NC(=O)C(C)OC(=O)C(C(C)C)NC(=O)C(C(C)C)OC(=O)C(C(C)C)NC(=O)C(C)OC(=O)C(C(C)C)NC(=O)C(C(C)C)OC(=O)C(C(C)C)NC1=O (centres undefined) | 0.278

Source: PubChem BioAssay AID1159580
